- tested_target: T1, human neuropeptide Y2 (NPY2) receptor (human, UniProt P49146 1-381)
- T1 sequence (looked up): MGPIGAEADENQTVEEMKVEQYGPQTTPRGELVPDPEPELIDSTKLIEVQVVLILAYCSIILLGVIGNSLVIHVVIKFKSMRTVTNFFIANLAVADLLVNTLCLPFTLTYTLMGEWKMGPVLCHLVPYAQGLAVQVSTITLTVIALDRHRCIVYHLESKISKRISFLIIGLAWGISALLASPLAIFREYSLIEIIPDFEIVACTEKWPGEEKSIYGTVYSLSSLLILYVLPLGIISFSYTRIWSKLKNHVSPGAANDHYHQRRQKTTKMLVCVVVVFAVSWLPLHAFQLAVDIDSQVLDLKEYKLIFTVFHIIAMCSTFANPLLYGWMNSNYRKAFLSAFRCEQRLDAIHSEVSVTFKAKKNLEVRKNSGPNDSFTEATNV
- assay_summary: cell-based or functional assay
Lab note: anything with EC50, CreLuc assay, 100% hP below 30 nM is marked True; values at 30 nM or higher are marked False.

# binder, assigned_class
records = [
    ("YXEGTFTSDYSIXLEKEKQXAFVEWLIKGGPSSGASLRHYYNWLTRQRY (Aib at 2, 13, 20; K28 side chain: C20DA-gGlu-gGlu-gGlu-gGlu-gGlu-gGlu-eLys; C-terminal NH2) [Compound 69]", "True"),
    ("YXEGTFTSDYSIXLEKQAQXAFVEWLIKGGPRYYASLRHYYNWLTRQRY (Aib at 2, 13, 20; K28 side chain: C20DA-gGlu-gGlu-gGlu-gGlu-gGlu-gGlu-eLys; C-terminal NH2) [Compound 62]", "False"),
    ("YXEGTFTSDYSIXLEKEAQXKFVEWLIKGGPSSGASLRHYYNWLTRQRY (Aib at 2, 13, 20; K28 side chain: C20DA-gGlu-gGlu-gGlu-gGlu-gGlu-gGlu-eLys; C-terminal NH2) [Compound 46]", "False"),
    ("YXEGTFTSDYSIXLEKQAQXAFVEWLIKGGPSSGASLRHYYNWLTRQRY (Aib at 2, 13, 20; DLeu 37; DHis 39; DArg 46; DTyr 49; K28 side chain: C20DA-gGlu-gGlu-gGlu-gGlu-gGlu-gGlu-eLys; C-terminal NH2) [Compound 5]", "False"),
    ("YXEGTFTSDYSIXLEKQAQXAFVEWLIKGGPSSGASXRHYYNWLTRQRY (Aib at 2, 13, 20, 37; NMeR 48; K28 side chain: C20DA-gGlu-gGlu-gGlu-gGlu-gGlu-gGlu-eLys; C-terminal NH2) [Compound 39]", "False"),
]

Q: Find out if reported EC50, CreLuc assay, 100% hP for YXEGTFTSDYSIXLEKQAQXAFVEWLIKGGPSSYVSLRHYYNWLTRQRY (Aib at 2, 13, 20; K28 side chain: C20DA-gGlu-gGlu-gGlu-gGlu-gGlu-gGlu-eLys; C-terminal NH2) [Compound 40] is less than 30 nM
Ans: True

Q: Find out if reported EC50, CreLuc assay, 100% hP for YXEGTFTSDYSIXLEKQAQXAFVEWLIKGGPSSGASLRHYYNWLTXQRY (Aib at 2, 13, 20; hArg 46; DTyr 49; K28 side chain: C20DA-gGlu-gGlu-gGlu-gGlu-gGlu-gGlu-eLys; C-terminal NH2) [Compound 71] is less than 30 nM
Ans: False
